Data origin: ChEMBL document CHEMBL3603746

Measurement Notes: Toxicity in human AC10 cells assessed as inhibition of cell proliferation at 100 uM after 24 hrs by CellTiter-Glo cell viability assay relative to control
Format: cell-based

>  <Compound>
C1COCCN1.CC(C)OP(=S)(S)c1ccc(Oc2ccccc2)cc1 (configuration not stated)

>  <inhibition at 24 h, 100 µM [%]>
28.6

$$$$
>  <Compound>
C1CSCCN1.S=P(S)(N1CCSCC1)N1CCSCC1

>  <inhibition at 24 h, 100 µM [%]>
35.6

$$$$

====

Measurement Notes: Therapeutic index, ratio of IC50 for human WI38 cells to IC50 for human MBA-MD-231 cells
Experimental Setup: WI38 cells and MBA-MD-231 cells

>  <Molecule>
C1COCCN1.CC(C)OP(=S)(S)c1ccc(Oc2ccccc2)cc1 (stereo unspecified)

>  <selectivity ratio>
1.4

$$$$
>  <Molecule>
C1COCCN1.COc1ccc(P(=S)(S)OC(C)C)cc1 (stereo unspecified)

>  <selectivity ratio>
1.5

$$$$
>  <Molecule>
C1COCCN1.S=P(S)(c1ccc(Oc2ccccc2)cc1)N1CCOCC1 (stereo unspecified)

>  <selectivity ratio>
2

$$$$
>  <Molecule>
NCC1CCCCC1.S=P(S)(NCC1CCCCC1)NCC1CCCCC1

>  <selectivity ratio>
1

$$$$
>  <Molecule>
C1COCCN1.CCCCOP(=S)(S)c1ccc(OC)cc1 (stereo unspecified)

>  <selectivity ratio>
1.1

$$$$
>  <Molecule>
NCc1ccccc1.S=P(S)(NCc1ccccc1)NCc1ccccc1

>  <selectivity ratio>
1.4

$$$$
>  <Molecule>
COc1ccc(P(=S)(S)NCc2ccccc2)cc1.NCc1ccccc1 (stereo unspecified)

>  <selectivity ratio>
2.3

$$$$
>  <Molecule>
C1CSCCN1.S=P(S)(N1CCSCC1)N1CCSCC1

>  <selectivity ratio>
1.5

$$$$
>  <Molecule>
NCc1ccccc1.S=P(S)(NCc1ccccc1)c1ccc(Oc2ccccc2)cc1 (stereo unspecified)

>  <selectivity ratio>
1.5

$$$$
>  <Molecule>
C1COCCN1.COP(=S)(S)c1ccc(Oc2ccccc2)cc1 (stereo unspecified)

>  <selectivity ratio>
1.9

$$$$
>  <Molecule>
C1COCCN1.S=P(S)(N1CCOCC1)N1CCOCC1

>  <selectivity ratio>
2.6

$$$$

====

Below, each entry is listed alongside its reported IC50 at 4 days.
Measurement Notes: Toxicity in human WI38 cells assessed as inhibition of cell proliferation after 4 days by crystal violet assay

>  <Compound>
Cc1ccc2c(c1)OP(=S)(c1ccc(Oc3ccccc3)cc1)N2 (stereo not drawn)

>  <Value Units>
µM

>  <Qualifier Sign>
>

>  <IC50 at 4 days>
400

$$$$
>  <Compound>
COc1ccc(P2(=S)Nc3ccc(C)cc3O2)cc1 (stereo not drawn)

>  <Value Units>
µM

>  <Qualifier Sign>
>

>  <IC50 at 4 days>
400

$$$$
>  <Compound>
C1COCCN1.S=P(S)(N1CCOCC1)N1CCOCC1

>  <Value Units>
µM

>  <Qualifier Sign>
=

>  <IC50 at 4 days>
683

$$$$
>  <Compound>
NCc1ccccc1.S=P(S)(NCc1ccccc1)c1ccc(Oc2ccccc2)cc1 (stereo not drawn)

>  <Value Units>
µM

>  <Qualifier Sign>
=

>  <IC50 at 4 days>
104

$$$$
>  <Compound>
COc1ccc(P(=S)(S)NCc2ccccc2)cc1.NCc1ccccc1 (stereo not drawn)

>  <Value Units>
µM

>  <Qualifier Sign>
=

>  <IC50 at 4 days>
208

$$$$
>  <Compound>
C1COCCN1.S=P(S)(c1ccc(Oc2ccccc2)cc1)N1CCOCC1 (stereo not drawn)

>  <Value Units>
µM

>  <Qualifier Sign>
=

>  <IC50 at 4 days>
656

$$$$
>  <Compound>
C1CSCCN1.S=P(S)(N1CCSCC1)N1CCSCC1

>  <Value Units>
µM

>  <Qualifier Sign>
=

>  <IC50 at 4 days>
30.4

$$$$
>  <Compound>
C1COCCN1.CCCCOP(=S)(S)c1ccc(OC)cc1 (stereo not drawn)

>  <Value Units>
µM

>  <Qualifier Sign>
=

>  <IC50 at 4 days>
177

$$$$

====

Below, each entry is listed alongside its reported %max.
Measurement Notes: Induction of H2S release in 10% PBS:MeCN solution at 5 mM incubated at 37 degC in dark condition measured at 96 hrs by 0.2 mM 2, 6-dansyl azide probed-based fluorescence assay relative to control
Assay type: physicochemical
Experimental Setup: buffer, 5000 µM
Property Name: %max (%)

>  <Molecule>
C1COCCN1.COP(=S)(S)c1ccc(Oc2ccccc2)cc1 (configuration not stated)

>  <Result Value>
0.16

$$$$
>  <Molecule>
COc1ccc(P(=S)(S)OCCCN)cc1 (configuration not stated)

>  <Result Value>
0.06

$$$$
>  <Molecule>
C1COCCN1.CC(C)OP(=S)(S)c1ccc(Oc2ccccc2)cc1 (configuration not stated)

>  <Result Value>
0.15

$$$$
>  <Molecule>
C1COCCN1.COc1ccc(P(=S)(S)OC)cc1 (configuration not stated)

>  <Result Value>
0.15

$$$$
>  <Molecule>
C1COCCN1.CCCCOP(=S)(S)c1ccc(OC)cc1 (configuration not stated)

>  <Result Value>
0.12

$$$$
>  <Molecule>
CCNCCOP(=S)(S)c1ccc(OC)cc1 (configuration not stated)

>  <Result Value>
0.03

$$$$
>  <Molecule>
C1COCCN1.COc1ccc(P(=S)(S)OC(C)C)cc1 (configuration not stated)

>  <Result Value>
0.12

$$$$

====

Measurement Notes: Induction of H2S release in 10% PBS:MeCN solution at 1 mM incubated at 22 degC in dark condition measured at 72 hrs by 2, 6-dansyl azide probed-based fluorescence assay
Format: physicochemical
Experimental Setup: buffer, 1000 µM
Property Name: Activity (µM)

>  <Molecule>
COc1ccc(P2(=S)Nc3ccc(C)cc3O2)cc1 (stereo not drawn)

>  <Value Units>
µM

>  <Result Value>
59

$$$$
>  <Molecule>
Cc1ccc2c(c1)OP(=S)(c1ccc(Oc3ccccc3)cc1)N2 (stereo not drawn)

>  <Value Units>
µM

>  <Result Value>
39.2

$$$$
>  <Molecule>
COc1ccc(P2(=S)Nc3ccccc3O2)cc1 (stereo not drawn)

>  <Value Units>
µM

>  <Result Value>
48.3

$$$$
>  <Molecule>
COc1ccc(P2(=S)Nc3cc(F)ccc3O2)cc1 (stereo not drawn)

>  <Value Units>
µM

>  <Result Value>
53.8

$$$$
>  <Molecule>
Fc1ccc2c(c1)NP(=S)(c1ccc(Oc3ccccc3)cc1)O2 (stereo not drawn)

>  <Value Units>
µM

>  <Result Value>
5

$$$$
>  <Molecule>
COc1ccc(P2(=S)Oc3ccccc3N2C)cc1 (stereo not drawn)

>  <Value Units>
µM

>  <Result Value>
2.1

$$$$
>  <Molecule>
CN1c2ccccc2OP1(=S)c1ccccc1 (stereo not drawn)

>  <Value Units>
µM

>  <Result Value>
24.4

$$$$
>  <Molecule>
S=P1(c2ccccc2)Nc2ccccc2O1 (stereo not drawn)

>  <Value Units>
µM

>  <Result Value>
150

$$$$

====

Measurement Notes: Induction of H2S release in 10% PBS:MeCN solution at 5 mM incubated at 22 degC in dark condition measured at 96 hrs by 2, 6-dansyl azide probed-based fluorescence assay relative to control
Experimental Setup: buffer, 5000 µM
Below, each entry is listed alongside its reported %max.

>  <Molecule>
C1COCCN1.CC(C)OP(=S)(S)c1ccc(Oc2ccccc2)cc1 (stereo unspecified)

>  <Qualifier Sign>
=

>  <%max, %>
0.06

$$$$
>  <Molecule>
COc1ccc(P(=S)(S)OCCCN)cc1 (stereo unspecified)

>  <Qualifier Sign>
=

>  <%max, %>
0.02

$$$$
>  <Molecule>
C1COCCN1.COP(=S)(S)c1ccc(Oc2ccccc2)cc1 (stereo unspecified)

>  <Qualifier Sign>
=

>  <%max, %>
0.06

$$$$
>  <Molecule>
C1COCCN1.CCCCOP(=S)(S)c1ccc(OC)cc1 (stereo unspecified)

>  <Qualifier Sign>
=

>  <%max, %>
0.04

$$$$
>  <Molecule>
NCc1ccccc1.S=P(S)(NCc1ccccc1)c1ccc(Oc2ccccc2)cc1 (stereo unspecified)

>  <Qualifier Sign>
=

>  <%max, %>
1.28

$$$$
>  <Molecule>
CCNCCOP(=S)(S)c1ccc(OC)cc1 (stereo unspecified)

>  <Qualifier Sign>
<

>  <%max, %>
0.01

$$$$

====

Below, each entry is listed alongside its reported fold change (FC).
Measurement Notes: Induction of H2S release in 10% PBS:MeCN solution at 5 mM incubated at 37 degC in dark condition measured at 96 hrs by 2, 6-dansyl azide probed-based fluorescence assay relative to GYY4137
Type: physicochemical
Experimental Setup: buffer, 5000 µM

>  <Molecule>
C1COCCN1.COc1ccc(P(=S)(S)OC(C)C)cc1 (stereo unspecified)

>  <fold change (FC)>
< 0.1

$$$$
>  <Molecule>
C1COCCN1.CC(C)OP(=S)(S)c1ccc(Oc2ccccc2)cc1 (stereo unspecified)

>  <fold change (FC)>
< 0.1

$$$$
>  <Molecule>
C1COCCN1.CCCCOP(=S)(S)c1ccc(OC)cc1 (stereo unspecified)

>  <fold change (FC)>
< 0.1

$$$$
>  <Molecule>
COc1ccc(P(=S)(S)OCCCN)cc1 (stereo unspecified)

>  <fold change (FC)>
< 0.1

$$$$
>  <Molecule>
C1COCCN1.COP(=S)(S)c1ccc(Oc2ccccc2)cc1 (stereo unspecified)

>  <fold change (FC)>
< 0.1

$$$$
>  <Molecule>
NCc1ccccc1.S=P(S)(NCc1ccccc1)c1ccc(Oc2ccccc2)cc1 (stereo unspecified)

>  <fold change (FC)>
0.5

$$$$
